Test system: U-251
Procedure text: Synergistic antiproliferative activity against human U-251 cells incubated for 6 days in presence of temozolomide by trypan blue staining based automated cell counter analysis
Format: functional
Measurement setup: U-251, 144 h, time 6 day, read-out: ED50 (the source's name)
Value type: EC50 (µM)
Express it in µM; write the number only.

CCCCCCCCCCCC[C@@H](O)[C@@H]1CC[C@@H]([C@H](O)CCCCCCCCCCNC(=O)c2ccsc2)O1 : 0.179

Field: next compound
Asked: Fill blank: measured EC50 of the compound CCCCCCCCCCOCCOCCOCCOCCCCCCCCCCCCNC(=O)c1ccsc1 is ____.
Given back: 0.043
